System: Influenza A virus
Test: Anti-influenza activity on A/WSN/33 (H1N1 subtype) strain of influenza virus infected on MDCK cells in cell protection assay.
Type: functional, organism-based
measure: EC50

Would you please look over these solved cases?
* CC1(C)C[C@H](O)C[C@](C)(C/N=C(\S)c2cc(Cl)ccc2O)C1 | 0.9 mg/L
* CC1(C)C[C@@H](O)C[C@](C)(C/N=C(\S)c2cccc(F)c2)C1 | 0.038 mg/L
* COC(=O)c1cccc(/C(S)=N/C[C@@]2(C)C[C@H](O)CC(C)(C)C2)c1 | Not Active
* CC1(C)C[C@@H](O)C[C@](C)(C/N=C(\S)c2cccc(C#N)c2)C1 | 2.5 mg/L
* Cc1ccc(O)c(/C(S)=N/C[C@@]2(C)C[C@@H](O)CC(C)(C)C2)c1 | 0.4 mg/L

For every item below, please supply its EC50.
1. CC1(C)C[C@H](O)C[C@](C)(C/N=C(\S)c2ccccc2O)C1
2. Cc1ccc(O)c(/C(S)=N/C[C@@]2(C)C[C@H](O)CC(C)(C)C2)c1
3. CC1(C)C[C@H](O)C[C@](C)(C/N=C(\S)c2cccc(C(F)(F)F)c2)C1
4. CC1(C)C[C@H](O)C[C@](C)(C/N=C(\S)c2cccc(F)c2)C1

1. 4.5 mg/L
2. 0.5 mg/L
3. Not Active
4. Not Active

Please report the recorded EC50 for CC1(C)C[C@@H](O)C[C@](C)(C/N=C(\S)c2cccc(C(F)(F)F)c2)C1 .
0.09 mg/L

====

Test system: Influenza A virus
Experiment: Anti-influenza activity on A/WSN/33 (H1N1 subtype) strain of influenza virus infected on MDCK cells in cell protection assay.
Type: functional, organism-based
In plain terms, low EC50, meaning strictly below 0.03 µg/mL, gives Yes, and everything else gives No.

* COc1ccccc1/C(S)=N/C[C@@]1(C)C[C@H](O)CC(C)(C)C1 | No
* CC1(C)C[C@@H](O)C[C@](C)(C/N=C(\S)c2ccccc2O)C1 | No
* Cc1ccccc1/C(S)=N/C[C@@]1(C)C[C@H](O)CC(C)(C)C1 | No
* Cc1cccc(/C(S)=N/C[C@@]2(C)C[C@H](O)CC(C)(C)C2)c1 | Yes
* Cc1ccc(O)c(C(=O)NC[C@@]2(C)C[C@H](O)CC(C)(C)C2)c1 | No
* CC1(C)C[C@@H](O)C[C@](C)(C/N=C(\S)c2cccc(Cl)c2)C1 | Yes

Dear colleague, could you confirm whether EC50 of Cc1ccc(/C(S)=N/C[C@@]2(C)C[C@H](O)CC(C)(C)C2)c(C)c1 falls below 0.03 µg/mL? Thanks.
No

Dear colleague, could you confirm whether EC50 of CC1(C)C[C@@H](O)C[C@](C)(CNC(=O)c2cc(Cl)ccc2O)C1 falls below 0.03 µg/mL? Thanks.
No

Dear colleague, could you confirm whether EC50 of CC1(C)C[C@@H](O)C[C@](C)(C/N=C(\S)c2cc(Cl)ccc2O)C1 falls below 0.03 µg/mL? Thanks.
No

Dear colleague, could you confirm whether EC50 of CC1(C)C[C@H](O)C[C@](C)(CNC(=O)c2cc(Cl)ccc2O)C1 falls below 0.03 µg/mL? Thanks.
No

Dear colleague, could you confirm whether EC50 of Cc1ccc(C)c(/C(S)=N/C[C@@]2(C)C[C@H](O)CC(C)(C)C2)c1 falls below 0.03 µg/mL? Thanks.
Yes

====

Tested on: Influenza A virus
Assay: Anti-influenza activity on A/WSN/33 (H1N1 subtype) strain of influenza virus infected on MDCK cells in cell protection assay.
Type: functional, organism-based
measure: EC50 (µg/mL)
Give bare numbers, in µg/mL.

- Cc1ccc(O)c(C(=O)NC[C@@]2(C)C[C@@H](O)CC(C)(C)C2)c1: 0.03

Please report the recorded EC50 for CC1(C)C[C@@H](O)C[C@](C)(C/N=C(\S)c2ccccc2)C1 .
0.05
